These data points were gathered from paper PMC7464173.

Reported CC50 at 7 days values for a set of compounds
experiment: Cytotoxicity, MTT assay in CEM-T4 cells; type: cell-based; settings: human; concentration causing 50% cell death; CEM-T4 cells, MTT, 7 days; read-out: CC50
Express it in µM; write the number only.

Completed entries (count: 4):
>  <Compound>
C=C(C)[C@@H]1CC[C@]2(COP(=O)(OCC)OCC)CC[C@]3(C)C(CCC4[C@@]5(C)CC[C@H](OC(=O)CC(C)(C)C(=O)O)C(C)(C)C5CC[C@]43C)C12 (some centres unmarked)

>  <Value Unit>
µM

>  <CC50 at 7 days>
25.4

$$$$
>  <Compound>
C=C(C)[C@@H]1CC[C@]2(COP(=O)(OCC)OCC)CC[C@]3(C)C(CCC4[C@@]5(C)CC[C@H](OC(=O)CCC(C)(C)C(=O)O)C(C)(C)C5CC[C@]43C)C12 (some centres unmarked)

>  <Value Unit>
µM

>  <CC50 at 7 days>
15.1

$$$$
>  <Compound>
C=C(C)[C@@H]1CC[C@]2(CO)CC[C@]3(C)[C@H](CC[C@@H]4[C@@]5(C)CC[C@H](O)C(C)(C)[C@@H]5CC[C@]43C)[C@@H]12

>  <Value Unit>
µM

>  <CC50 at 7 days>
46

$$$$
>  <Compound>
C=C(C)[C@@H]1CC[C@]2(COP(=O)(OCC)OCC)CC[C@]3(C)C(CCC4[C@@]5(C)CC[C@H](OC(=O)CC(C)(C)CC(=O)O)C(C)(C)C5CC[C@]43C)C12 (some centres unmarked)

>  <Value Unit>
µM

>  <CC50 at 7 days>
19.7

$$$$

Now look at this entry.
C=C(C)[C@@H]1CC[C@]2(COP(=O)(OCC)OCC)CC[C@]3(C)C(CCC4[C@@]5(C)CC[C@H](O)C(C)(C)C5CC[C@]43C)C12 (some centres unmarked) yielded CC50 at 7 days of 18.3
